Source of measurements: patent US20250152704A1

# target-system: T1, Recombinant in-house Human FcRn protein (human, UniProt P55899 24-297; P61769 21-119, limits assumed)
# T1 construct: also called huFCRN; HuFcRn
# T1 sequence (P55899 24-297 limits assumed, chain 1 of 2): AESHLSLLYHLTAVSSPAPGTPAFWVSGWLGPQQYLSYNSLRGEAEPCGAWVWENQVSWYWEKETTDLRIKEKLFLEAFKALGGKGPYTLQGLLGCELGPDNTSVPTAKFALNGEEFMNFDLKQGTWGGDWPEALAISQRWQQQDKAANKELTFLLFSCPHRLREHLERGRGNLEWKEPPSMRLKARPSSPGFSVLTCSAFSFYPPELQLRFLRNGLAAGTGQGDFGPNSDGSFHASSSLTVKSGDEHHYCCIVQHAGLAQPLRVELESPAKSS
# T1 sequence (P61769 21-119 limits assumed, chain 2 of 2): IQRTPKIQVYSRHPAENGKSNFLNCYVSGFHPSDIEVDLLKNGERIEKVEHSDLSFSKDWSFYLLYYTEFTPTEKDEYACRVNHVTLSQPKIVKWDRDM
# protocol-description: SPR, pH 7.4
Form field: Kd (one value per entry).
The answer is to be given in nM; state only the numeric part.

| binder | Kd [nM] |
| --- | --- |
| Fc Fragment 2 (other, Human IgG1 Fc fragment; substitutions already in the entry; also called Fc195) DKTHTCPPCPAPELLGGPSVFLFPPKPKDTLYITREPEVTCVVVDVSHEDPEVKFNWYVDGVEVHNAKTKPREEQYNSTYRVVSVLTVLHQDWLNGKEYKCKVSNKALPAPIEKTISKAKGQPREPQVYTLPPSRDELTKNQVSLTCLVKGFYPSDIAVEWESNGQPENNYKTTPPVLDSDGSFFLYSKLTVDKSRWQQGNVFSCSVLHEALKFHYTQKSLSLSPG | 259 |
| Fc Fragment 19 (other, Human IgG1 Fc fragment; substitutions already in the entry) DKTHTCPPCPAPELLGGPSVFLFPPKPKDTLYITREPEVTCVVVDVSHEDPEVKFNWYVDGVEVHNAKTKPREEQYNSTYRVVSVLTVDHKDWLNGKEYKCKVSNKALPAPIEKTISKAKGQPREPQVYTLPPSRDELTKNQVSLTCLVKGFYPSDIAVEWESNGQPENNYKTTPPVLDSDGSFFLYSKLTVDKSRWQQGNVFSCSVMHEALKFHYTQKSLSLSPG | 252 |

Next up:
[in] Requested field: Kd. Item: Fc Fragment 1 (other, Human IgG1 Fc fragment (EU 221-446) with the named substitutions already in the entry; also called Efgartigimod (Efgart); Efgartigimod without the C-terminal lysine) DKTHTCPPCPAPELLGGPSVFLFPPKPKDTLYITREPEVTCVVVDVSHEDPEVKFNWYVDGVEVHNAKTKPREEQYNSTYRVVSVLTVLHQDWLNGKEYKCKVSNKALPAPIEKTISKAKGQPREPQVYTLPPSRDELTKNQVSLTCLVKGFYPSDIAVEWESNGQPENNYKTTPPVLDSDGSFFLYSKLTVDKSRWQQGNVFSCSVMHEALKFHYTQKSLSLSPG
[out] 239
